Tested on: CCRIS mutagenicity, Ames/micronucleus/aberration tests
run_description: CCRIS mutagenicity studies
particulars: Test System: AMES SALMONELLA TYPHIMURIUM; Strain/Indicator: TA98; Metabolic Activation: RAT, LIVER, S-9, AROCLOR 1254; Method: STANDARD PLATE
Calls of active or inactive are those of the source. The rule behind the calls is not given here.
// classify into active, inactive

Examples from the recorded data:
{"columns": ["compound", "assigned_label"],
 "data": [
  ["CC(=O)Nc1cc2c(cc1OC(=O)c1ccccc1)-c1ccccc1C2", "inactive"],
  ["C=C(C)C(=O)OCC", "inactive"],
  ["O=S(=O)(O)CNc1ccc(N=Nc2cccnc2)cc1", "inactive"],
  ["CN(C)c1ccc(C(=N)c2ccc(N(C)C)cc2)cc1", "inactive"],
  ["CC1OC(OC2CC(O)(CO)Cc3c(O)c4c(c(O)c32)C(=O)c2ccccc2C4=O)C(I)C(O)C1O (centres undefined)", "inactive"],
  ["CC1=CCC(C(C)(C)O)CC1 (centres undefined)", "inactive"],
  ["Cc1ccc2c(c1)C(C)c1ccccc1-2 (centres undefined)", "inactive"],
  ["CC1=C(N=O)CNc2c1nc1c(C)cccn21", "active"]
]}

Q: Entry `ClC(Cl)=Cc1c(Cl)c(Cl)c(Cl)c(Cl)c1Cl` : call = ?
A: inactive

Q: Could you please tell me the result logged for `Cc1cc(C(=O)NNCc2ccccc2)no1` in this assay?
A: inactive

Q: Hi team, can someone confirm the assay call for `Nc1ccc(Cc2ccc(N)cc2)cc1` ?
A: active

Q: Answer briefly: the call reported for CC(C)=CC1C(C(=O)OCc2cccc(Oc3ccccc3)c2)C1(C)C (centres undefined) in this assay.
A: inactive

Q: Dear colleague, could you share the recorded outcome for `Fc1ccccc1-c1ccccc1` when you have a moment?
A: inactive

Q: Lab log entry: `O=c1c(Cl)c(Cl)cnn1S(=O)(=O)c1ccccc1` — outcome as called in the assay?
A: inactive

Q: In this assay, the call recorded for `CNc1ccc2ccc3ccc(O)cc3c2c1` was what?
A: active

Q: Record request — test call for `O=CN(O)c1ccc(F)cc1`
A: active

Q: What was the test verdict on `O=[N+]([O-])c1ccc(NO)cc1` ?
A: active

Q: Per the records of this test, what outcome belongs to `c1ccc2c(c1)ccc1c2ccc2cccnc21` ?
A: active

Q: Per the assay record, what outcome was assigned to `CC(C)CC(=O)OCc1cocc2c(C=O)ccc1-2` ?
A: active

* * *

Test system: CCRIS mutagenicity, Ames/micronucleus/aberration tests
run_description: CCRIS mutagenicity studies
particulars: Test System: AMES SALMONELLA TYPHIMURIUM; Strain/Indicator: TA98; Metabolic Activation: NONE; Method: STANDARD PLATE
Calls of active or inactive are those of the source. How the calls were made is not given here.
observed_property: mutagenic call

A selection of reference data follows.
{"columns": ["molecule", "result"],
 "data": [
  ["CC[C@]1(O)CC2CN(CCc3c([nH]c4ccccc34)[C@@](C(=O)OC)(c3cc4c(cc3OC)N(C=O)[C@H]3[C@@](O)(C(=O)OC)[C@H](OC(C)=O)[C@]5(CC)C=CCN6CC[C@]43[C@@H]65)C2)C1 (some centres not stated)", "inactive; negative"],
  ["NCCNCCN", "inactive; negative"],
  ["CCOC(=O)C(SP(=S)(OC)OC)c1ccccc1 (configuration not stated)", "inactive; negative"],
  ["COc1cccc2c1cc1c3c(cc4c(c32)OCO4)C(=O)N1", "inactive; negative"]
]}

Q: For the molecule `[O-]/[N+](=N\O)c1ccccc1` , give its reported mutagenic call.
A: inactive; negative

Q: Supply mutagenic call value. Item: CC(O)Cc1cc(N)cc([N+](=O)[O-])c1N (configuration not stated)
A: inactive; negative

* * *

Test system: CCRIS mutagenicity, Ames/micronucleus/aberration tests
run_description: CCRIS mutagenicity studies
particulars: Test System: AMES SALMONELLA TYPHIMURIUM; Strain/Indicator: TA98; Metabolic Activation: S-9; Method: STANDARD PLATE
Active and inactive are the calls of the source. How the calls were made is not given here.
Answer with one of the outcomes given here: active, inactive

{"columns": ["compound", "assigned_label"],
 "data": [
  ["COc1cccc(/C=C/c2ccc(N)cc2)c1", "active"],
  ["CCN(C)C(=O)Oc1ccc2c(c1)C1(C)CCN(C)C1N2C (centres undefined)", "inactive"],
  ["Oc1ccc(Oc2c(Cl)cc(Cl)cc2Cl)cc1", "inactive"],
  ["CC[C@]1(O)CC2CN(CCc3c([nH]c4ccccc34)[C@@](C(=O)OC)(c3cc4c(cc3OC)N(C=O)[C@H]3[C@@](O)(C(=O)OC)[C@H](OC(C)=O)[C@]5(CC)C=CCN6CC[C@]43[C@@H]65)C2)C1 (some centres undefined)", "inactive"],
  ["COc1nsc2cc(N)ccc12", "active"]
]}

Q: Answer briefly: the call reported for `CC(=O)c1ccco1` in this assay.
A: active

Q: GET /call?item= `COC(=O)c1cc(-c2ccc(N)c(C(=O)OC)c2)ccc1N` returns the recorded outcome of this test.
A: active

Q: Dear colleague, could you share the recorded outcome for `CC(C)COC(=O)CCCCC(=O)OCC(C)C` when you have a moment?
A: inactive

Q: Could you kindly confirm the outcome this assay logged for `CCNc1nc(Cl)nc(NC(C)C)n1` ?
A: inactive

* * *

Test system: CCRIS mutagenicity, Ames/micronucleus/aberration tests
run_description: CCRIS mutagenicity studies
particulars: Test System: AMES SALMONELLA TYPHIMURIUM; Strain/Indicator: TA98; Metabolic Activation: NONE; Method: PREINCUBATION
The source made the active and inactive calls. How the calls were made is not given here.
Allowed answers: active, inactive

{"columns": ["sample_smiles", "system_name", "assigned_label"],
 "data": [
  ["Clc1nncc2ccncc12", "CCRIS mutagenicity, Ames/micronucleus/aberration tests", "inactive"],
  ["CCCC(=O)O[C@H]1[C@H](C)O[C@@H](O[C@H]2[C@H](N(C)C)[C@@H](O)[C@H](O[C@H]3[C@@H](CC=O)C[C@@H](C)[C@@H](O)/C=C/C=C/C[C@@H](C)OC(=O)C[C@@H](O)[C@@H]3OC)O[C@@H]2C)C[C@@]1(C)OC(=O)CC", "CCRIS mutagenicity, Ames/micronucleus/aberration tests", "inactive"],
  ["O=C(O)c1cccc(Cl)c1", "CCRIS mutagenicity, Ames/micronucleus/aberration tests", "inactive"]
]}

Q: What outcome does the record of this test show for `CC[C@H]1OC(=O)[C@H](C)[C@@H](O[C@H]2C[C@@](C)(OC)[C@@H](O)[C@H](C)O2)[C@H](C)[C@@H](O[C@@H]2O[C@H](C)C[C@H](N(C)C)[C@H]2O)[C@](C)(O)C[C@@H](C)C(=O)[C@H](C)[C@@H](O)[C@]1(C)O` ?
A: inactive

Q: // outcome(item) with item = `Nc1n[nH]c(N)n1`
A: inactive

Q: Per the assay record, what outcome was assigned to `C#C[C@]1(O)CC[C@H]2[C@@H]3CCC4=CC(=O)CC[C@@H]4[C@H]3CC[C@@]21C` ?
A: inactive

Q: Tell me the assay call for `O=[N+]([O-])c1ccc(Cl)cc1` please.
A: inactive

Q: Recorded call for `C=CC(=O)NC(C)(C)CC(C)=O` ?
A: inactive

Q: Look up the recorded call for `Clc1ccc2ccccc2n1` in this test.
A: inactive

Q: What did the test return for `O=[N+]([O-])c1cc([N+](=O)[O-])c2ccc3cccc4ccc1c2c43` ?
A: active

Q: Short answer needed: outcome of this test for `O=[N+]([O-])c1cc2c(ccc3ccccc32)c2c1C=C[C@H](O)[C@H]2O` ?
A: active

* * *

System: CCRIS mutagenicity, Ames/micronucleus/aberration tests
run_description: CCRIS mutagenicity studies
particulars: Test System: AMES SALMONELLA TYPHIMURIUM; Strain/Indicator: TA98; Metabolic Activation: NONE; Method: STANDARD PLATE
Active and inactive are the calls of the source. The rule behind the calls is not given here.
Output constraint: value belongs to T (active), F (inactive)

{"columns": ["sample_smiles", "assigned_label"],
 "data": [
  ["O=C1c2cccc(O)c2C(=O)c2c(O)cc(CO)cc21", "T"],
  ["ClC(Cl)=Cc1c(Cl)c(Cl)c(Cl)c(Cl)c1Cl", "F"],
  ["Cl/C=C(/Cl)c1c(Cl)c(Cl)c(Cl)c(Cl)c1Cl", "F"],
  ["CN(C)c1ccc(/C=C/C(=O)c2ccccc2)cc1", "F"],
  ["Cn1c(CC(=O)OCCCl)c(C(=O)O)c2ccccc21", "T"],
  ["C[Si]1(C)O[Si](C)(C)O[Si](C)(C)O[Si](C)(C)O1", "F"]
]}

Q: Record lookup: outcome of this test for `O=Cc1ccccc1[N+](=O)[O-]` ?
A: F

Q: // param item: `CC(C)OC(=O)C(C)(C)Oc1ccc(C(=O)c2ccc(Cl)cc2)cc1` ; yields the recorded call
A: F
